# system: Tumor necrosis factor (Homo sapiens) (UniProt P01375)
# Sequence (P01375 whole entry): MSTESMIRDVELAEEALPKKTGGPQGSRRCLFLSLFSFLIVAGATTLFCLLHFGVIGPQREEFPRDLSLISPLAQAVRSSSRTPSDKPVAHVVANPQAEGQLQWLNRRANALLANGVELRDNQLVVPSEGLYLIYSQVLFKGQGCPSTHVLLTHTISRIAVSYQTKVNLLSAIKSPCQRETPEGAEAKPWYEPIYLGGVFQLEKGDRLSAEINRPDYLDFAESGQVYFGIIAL
# assayDetails: Inhibition of TNFalpha (unknown origin)-induced NFkappaB transcriptional activity in human HT-29 cells at 10 uM pretreated with cells for 1 hr followed by TNFalpha induction for 3 hrs by dual luciferase reporter gene assay
# Type: cell-based
Active and inactive are the calls of the source. The rule behind the calls is not given here.
observationType: inhibition

Solved entries (count: 4):
1) O=C1/C(=C/c2cccnc2)Cc2c(O)cccc21
Active
2) O=C1/C(=C/c2cccnc2)Cc2ccc(O)cc21
Active
3) O=C1/C(=C/c2ccncc2)Cc2c(O)cccc21
Active
4) O=C1/C(=C/c2ccncc2)Cc2cccc(O)c21
Active

Field: next compound
Incoming: Identify the reported inhibition for the following entry. `O=C1/C(=C/c2ccncc2)Cc2ccc(O)cc21`
Outgoing: Active

---

# reported inhibition; entries follow
# system: Tumor necrosis factor (Homo sapiens) (UniProt P01375)
# assayDetails: Inhibition of TNFalpha (unknown origin)-induced adhesion of BCECF fluorescence-labeled human U937 cells to human HT-29 cells at 10 uM measured at 3 hrs post TNFalpha stimulation relative to control
Kindly provide the numeric value in % only, without the unit symbol.

Examples with their reported inhibition follow.
1) O=C1/C(=C/c2ccccn2)Cc2cc(O)ccc21
58.1
2) O=C1/C(=C/c2ccncc2)Cc2cccc(O)c21
74.6
3) CC(C)Oc1ccc2c(c1)C(=O)/C(=C/c1ccncc1)C2
45.7

Incoming: GET inhibition | system: Tumor necrosis factor (Homo sapiens) (UniProt P01375) | item: `O=C1/C(=C/c2ccccn2)Cc2c(O)cccc21`
Outgoing: 64.5

Incoming: Please report the measured inhibition for `CC(C)Oc1cccc2c1C/C(=C\c1ccncc1)C2=O` tested on Tumor necrosis factor (Homo sapiens) (UniProt P01375).
Outgoing: 60.9

Incoming: State recorded inhibition with Tumor necrosis factor (Homo sapiens) (UniProt P01375), entry `O=C1/C(=C/c2cccnc2)Cc2ccc(O)cc21` , no comment.
Outgoing: 74.7

Incoming: Please respond with reported inhibition (system Tumor necrosis factor (Homo sapiens) (UniProt P01375)) for `O=C1/C(=C/c2ccncc2)Cc2ccc(O)cc21` .
Outgoing: 85.5

Incoming: Report inhibition under test system Tumor necrosis factor (Homo sapiens) (UniProt P01375) for `COc1cccc2c1C/C(=C\c1ccncc1)C2=O` .
Outgoing: 5.9

Incoming: // fetch inhibition; item: `CCOc1ccc2c(c1)C(=O)/C(=C/c1ccncc1)C2` ; system: Tumor necrosis factor (Homo sapiens) (UniProt P01375)
Outgoing: 7.3

Incoming: Report its inhibition with Tumor necrosis factor (Homo sapiens) (UniProt P01375) as the test system: `O=C1/C(=C/c2ccccn2)Cc2ccc(O)cc21`
Outgoing: 54.8

Incoming: Param request: inhibition | system Tumor necrosis factor (Homo sapiens) (UniProt P01375) | item `CCOc1cccc2c1C/C(=C\c1ccncc1)C2=O`
Outgoing: 51.2

Incoming: Find the measured inhibition of `O=C1/C(=C/c2cccnc2)Cc2c(O)cccc21` with Tumor necrosis factor (Homo sapiens) (UniProt P01375) as test system.
Outgoing: 70.8

---

# system: UniProt:P01375
# assayDetails: Inhibition of TNFalpha (unknown origin)-induced decrease in E-cadherin expression in human HT-29 cells at 10 uM pretreated with cells for 1 hr followed by TNFalpha induction for 3 hrs by Western blot analysis
# Assay type: cell-based
Activity calls are given as the source filed them. The calls are words filed in the database; no cut-off is given here.
observationType: inhibition

Consider the following illustrative entries.
1) O=C1/C(=C/c2cccnc2)Cc2c(O)cccc21
inactive
2) O=C1/C(=C/c2cccnc2)Cc2ccc(O)cc21
inactive
3) O=C1/C(=C/c2ccncc2)Cc2ccc(O)cc21
Active
4) O=C1/C(=C/c2ccncc2)Cc2c(O)cccc21
Active

Incoming: Supply inhibition value. Item: `O=C1/C(=C/c2ccncc2)Cc2cccc(O)c21`
Outgoing: inactive

---

# system: Tumor necrosis factor (Homo sapiens) (UniProt P01375)
# assayDetails: Inhibition of TNFalpha (unknown origin)-induced adhesion of BCECF fluorescence-labeled human U937 cells to human HT-29 cells at 10 uM measured at 3 hrs post TNFalpha stimulation relative to control
observationType: inhibition

Here is how some compounds turned out for inhibition.
1. O=C1/C(=C/c2cccnc2)Cc2cc(O)ccc21
67%
2. O=C1/C(=C/c2ccccn2)Cc2cccc(O)c21
46.2%
3. O=C1/C(=C/c2ccncc2)Cc2cc(O)ccc21
26.6%
4. COc1ccc2c(c1)C(=O)/C(=C/c1ccncc1)C2
4.1%
5. O=C1/C(=C/c2cccnc2)Cc2cccc(O)c21
46.1%

Proceeding to the next compound to report its inhibition.
Incoming: Specify measured inhibition for `O=C1/C(=C/c2ccncc2)Cc2c(O)cccc21` .
Outgoing: 78%
